# SUBJECT_OF_TEST: farnesyl-protein transferase (Homo sapiens, UniProt P49354+P49356)
# TEST: FPT inhibition (in vitro farnesyl protein transferase inhibition)
Below, each entry is listed with its recorded pIC50.
Quick note: pIC50 values are minus log10 of concentrations in mol/L.

Before answering, review these 3 worked examples.
O=C(NCc1cccnc1)C1CCN1C1c2ccc(Cl)cc2CCc2cc(Br)cnc21 (single isomer, unassigned) [Example 3 Isomer A] :: 5.98
O=C(NCc1cccnc1)C1CCCN1C1c2ncc(Br)cc2CCc2cc(Cl)cc(Br)c21 (single isomer, unassigned) [Example 2 Isomer B] :: 8.28
O=C(NCc1cccnc1)[C@@H]1CCCN1C1c2ccc(Cl)cc2CCc2cc(Br)cnc21 (single isomer, unassigned) [Example 1 Isomer B] :: 6.85

Please look at the following compound next.
For the record O=C(NCc1cccnc1)[C@@H]1CCCN1C1c2ccc(Cl)cc2CCc2cc(Br)cnc21 (single isomer, unassigned) [Example 1 Isomer A] , what value of pIC50 is listed for farnesyl-protein transferase (Homo sapiens, UniProt P49354+P49356)?
7.23
